Recorded values, source patent US7053177B1.

target: bovine serum albumin (bovine) (UniProt P02769); test: phage ELISA on coated BSA
Sequence (P02769 25-607 limits assumed): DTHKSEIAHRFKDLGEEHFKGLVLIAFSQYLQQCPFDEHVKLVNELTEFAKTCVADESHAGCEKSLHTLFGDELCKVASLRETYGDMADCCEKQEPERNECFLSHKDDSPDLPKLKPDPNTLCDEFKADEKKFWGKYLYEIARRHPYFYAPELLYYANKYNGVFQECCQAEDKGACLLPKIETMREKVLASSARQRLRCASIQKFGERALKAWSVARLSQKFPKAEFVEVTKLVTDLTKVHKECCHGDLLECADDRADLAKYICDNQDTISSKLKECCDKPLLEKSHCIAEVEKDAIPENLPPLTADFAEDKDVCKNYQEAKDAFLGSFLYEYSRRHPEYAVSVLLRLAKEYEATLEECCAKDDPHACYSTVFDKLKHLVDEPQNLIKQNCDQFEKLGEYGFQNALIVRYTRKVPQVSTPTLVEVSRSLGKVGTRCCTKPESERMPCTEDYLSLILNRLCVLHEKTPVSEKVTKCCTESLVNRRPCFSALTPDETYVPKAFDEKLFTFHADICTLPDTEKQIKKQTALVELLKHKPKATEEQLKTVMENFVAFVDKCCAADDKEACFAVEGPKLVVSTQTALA
Ends that are not written are not given here.
measured parameter: OD (OD 650 nm)

>  <binder>
SYCRVKGGGEGGHTDSNLARSGCGKVARTSRLQHINPRATPPSR (peptide, not shown: large carriers) [phage PAX15]

>  <value>
0.079

$$$$
>  <binder>
RWCGADDPCGASRWRGGNSLFGCGLRCSAAQSTPSGRIHSTSTS [phage DAB7]

>  <value>
0.09

$$$$
>  <binder>
SREEANWDGYKREMSHRSRFWDATHLSRPRRPANSGDPN (peptide, not shown: large carriers, also: displayed as N-terminal pIII fusion on M13 phage) [phage HAX9]

>  <value>
0.075

$$$$
>  <binder>
RVGQCTDSDVRRPWARSCAHQGCGAGTRNSHGCITRPLRQASAH [phage SNi10]

>  <value>
0.051

$$$$
>  <binder>
REWRFAGPPLDLWAGPSLPSFNASSHPRALRTYWSQRPR [phage DAX23]

>  <value>
0.153

$$$$
>  <binder>
SDHALGTNLRSDNAKEPGDYNCCGNGNSTGRKVFNRRRPSAIPT (peptide, not shown: large carriers, cysteine pairing not given here; also: displayed as N-terminal pIII fusion on M13 phage) [phage HAX42]

>  <value>
0.071

$$$$
>  <binder>
SQVDSFRNSFRWYEPSRALCHGCGKRDTSTTRIHNSPSDSYPTR (cysteine pairing not given here; also: displayed as N-terminal pIII fusion on M13 phage, M13 phage displaying this insert as N-terminal pIII fusion; whole phage in the ELISA; not shown: M13 phage particle / pIII display carrier (and vector flanks)) [phage PAX17]

>  <value>
0.095

$$$$
>  <binder>
SHPWYRHWNHGDFSGSGQSRHTPPESPHPGRPNATI [phage DAX27]

>  <value>
0.424

$$$$
>  <binder>
RGAADQRRGWSENLGLPRVGWDAIAHNSYTFTSRRPRPP [phage SNi38]

>  <value>
0.076

$$$$
>  <binder>
SKSGEGGDSSRGETGWARVRSHAMTAGRFRWYNQLPSDR [phage DAB10]

>  <value>
0.153

$$$$
>  <binder>
SSSSDWGGVPGKVVRERFKGRGCGISITSVLTGKPNPCPEPKAA [phage S22]

>  <value>
0.061

$$$$
